# system: rat Peripheral-type Benzodiazepine Receptor (PBR), Tspo (gene 24230) (UniProt P16257)
# Sequence (P16257 whole entry, looked up): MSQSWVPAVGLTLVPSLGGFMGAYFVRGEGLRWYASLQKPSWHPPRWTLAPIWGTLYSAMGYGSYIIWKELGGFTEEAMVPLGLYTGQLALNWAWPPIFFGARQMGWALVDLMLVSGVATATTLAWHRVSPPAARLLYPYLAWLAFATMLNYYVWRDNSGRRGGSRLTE
# protocol.details: NVS_MP_rPBR: NovaScreen (NVS) Membrane Protein Assay for rat Peripheral-type Benzodiazepine Receptor (PBR) (AID 2283335)
Results filed as inconclusive are left out. Activity calls are given as the source filed them. Rule for the calls: active = hit-call score of the fitted dose curve at least 0.9, where 1 is the maximum; inconclusive = response in the unintended direction; inactive = score below 0.9.
Outcomes: TRUE for active, FALSE for inactive

compound: CCOc1ccc(N=Nc2ccc(C=Cc3ccc(N=Nc4ccc(OCC)cc4)cc3S(=O)(=O)O)c(S(=O)(=O)O)c2)cc1
discrete.label: TRUE
//
compound: Cc1cc(=O)oc2cc(N(C)C)ccc12
discrete.label: TRUE
//
compound: CCCCC(CC)COC(C)=O (configuration not stated)
discrete.label: FALSE
//
compound: Cc1ccc(S(=O)(=O)Oc2ccc(N=Nc3ccc(-c4ccc(N=Nc5c(O)ccc6cc(S(=O)(=O)O)cc(S(=O)(=O)O)c56)c(C)c4)cc3C)cc2)cc1
discrete.label: TRUE
//
compound: O=C1OC[C@H](Cc2cccc(O)c2)[C@H]1Cc1cccc(O)c1
discrete.label: TRUE
//
compound: CN(C)C(=S)SC(=S)N(C)C
discrete.label: FALSE
//
compound: CCCCCCCCCCCCCCCC(=O)OC/C=C(C)/C=C/C=C(C)/C=C/C1=C(C)CCCC1(C)C
discrete.label: FALSE

====

# protocol.details: ATG_MRE_CIS: Attagene CIS-FACTORIAL HepG2 Assay for human Metal Responsive Element (MRE) (AID 2282954)
# reported.conditions: HepG2 MRE cis-reporter transcription, Attagene multiplex; actives raise or lower the signal
The source made the active and inactive calls. How the source made its calls: active means hit-call score of the fitted dose curve at least 0.9, where 1 is the maximum; inactive means score below 0.9.
Outcomes: label 1 = active, label 0 = inactive

compound: C=C(C)CNCC
discrete.label: label 0

compound: CCCCC(CC)COC(=O)c1ccc(O)cc1 (centres undefined)
discrete.label: label 0

compound: CC(Oc1cc(Cl)ccc1Cl)C(=O)O (centres undefined)
discrete.label: label 0

compound: CN(C)CCOC(C)(c1ccccc1)c1ccccn1 (centres undefined)
discrete.label: label 0

compound: Nc1ccc(Cl)c([N+](=O)[O-])c1
discrete.label: label 0

compound: O=C1CCCC=CCCCCCCCCCC1
discrete.label: label 0

compound: Cc1ccc(N)c(S(=O)(=O)O)c1
discrete.label: label 0

compound: CCCC1O[C@@H]2C[C@H]3[C@@H]4CCC5=CC(=O)C=C[C@]5(C)[C@H]4[C@@H](O)C[C@]3(C)[C@]2(C(=O)CO)O1 (some centres undefined)
discrete.label: label 0

compound: COc1cc(C(C)C)ccc1C
discrete.label: label 0

compound: CC(C)(C)c1ccc(C(=O)O)cc1
discrete.label: label 0

compound: CCCCCC(C)=O
discrete.label: label 0

compound: C=C(C)C(=O)OCC(CC)(COC(=O)C(=C)C)COC(=O)C(=C)C
discrete.label: label 0

compound: CCC(C)S (centres undefined)
discrete.label: label 0

compound: CCCCC(CC)COC(C)=O (centres undefined)
discrete.label: label 0

compound: CCCC(=O)C(CC)Sc1ccoc1C (centres undefined)
discrete.label: label 0

compound: CCCCCCC(CO)CCCC (centres undefined)
discrete.label: label 0

compound: O=C(O)COCC(=O)O
discrete.label: label 0

compound: COc1ccccc1N=Nc1c(S(=O)(=O)O)cc2cc(S(=O)(=O)O)cc(NC(C)=O)c2c1O
discrete.label: label 0

compound: CN(c1nccc(=O)[nH]1)C1CCN(c2nc3ccccc3n2Cc2ccc(F)cc2)CC1
discrete.label: label 1

compound: CCCCCCC(O)CCCCCCCCCCC(=O)O (centres undefined)
discrete.label: label 0

compound: COc1ccc(N=Nc2cc(C)c(N=Nc3ccc(S(=O)(=O)O)cc3)cc2OC)cc1
discrete.label: label 0

compound: CCCCCC(=O)CC
discrete.label: label 0

compound: CCCC[O][Al]([O]CCCC)[O]CCCC
discrete.label: label 0

compound: CC1(C)CCC[C@]2(C)[C@H]3CCO[C@]3(C)CC[C@@H]12
discrete.label: label 0

compound: C=CC(C)C#N (centres undefined)
discrete.label: label 0

compound: CC(=O)CC(=O)Nc1ccccc1
discrete.label: label 0

compound: CC(C)CC(C)CC(O)CC(C)C (centres undefined)
discrete.label: label 0

compound: COCCOC(=O)c1ccccc1C(=O)OCCOC
discrete.label: label 0

compound: CCN(CCN)c1cccc(C)c1
discrete.label: label 0

====

# system: Nuclear receptor subfamily 1 group I member 2 (Homo sapiens) (UniProt O75469)
# Sequence (O75469 whole entry, looked up): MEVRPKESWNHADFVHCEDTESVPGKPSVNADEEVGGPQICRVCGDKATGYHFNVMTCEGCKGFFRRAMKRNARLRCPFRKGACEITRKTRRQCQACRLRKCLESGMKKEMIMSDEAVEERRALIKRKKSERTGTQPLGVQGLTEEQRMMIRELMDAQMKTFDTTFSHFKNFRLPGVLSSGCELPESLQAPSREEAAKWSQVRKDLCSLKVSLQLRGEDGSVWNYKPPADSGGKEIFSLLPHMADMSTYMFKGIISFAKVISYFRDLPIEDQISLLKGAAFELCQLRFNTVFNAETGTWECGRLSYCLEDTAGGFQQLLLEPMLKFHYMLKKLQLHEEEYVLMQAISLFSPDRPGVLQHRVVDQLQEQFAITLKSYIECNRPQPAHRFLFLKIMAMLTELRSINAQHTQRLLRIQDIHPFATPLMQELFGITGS
# protocol.details: ATG_PXR_TRANS: Attagene TRANS-FACTORIAL HepG2 Assay for human Pregnane X Receptor (PXR) (AID 2283008)
Records with an inconclusive call do not appear. Activity calls are given as the source filed them. Rule for the calls: active = hit-call score of the fitted dose curve at least 0.9, where 1 is the maximum; inconclusive = response in the unintended direction; inactive = score below 0.9.
property.label: AC50

molecule: CCCCCCCCSCCO
property.label: AC50
value.reported: inactive

molecule: C=C(C)C(=O)OCC(CC)(COC(=O)C(=C)C)COC(=O)C(=C)C
property.label: AC50
value.reported: inactive

molecule: CCCCCCCCCCCCN1CCCCCC1=O
property.label: AC50
value.reported: 1.93 µM (active)

molecule: CCCCCCCCCCCC(=O)OCC(O)CO (stereo not drawn)
property.label: AC50
value.reported: inactive

molecule: CCCCCCC(CO)CCCC (stereo not drawn)
property.label: AC50
value.reported: inactive

molecule: Nc1ccccc1[N+](=O)[O-]
property.label: AC50
value.reported: inactive

molecule: C=CC(C)C#N (stereo not drawn)
property.label: AC50
value.reported: inactive

molecule: O=C(Nc1ccc2c(O)c(N=Nc3ccc(N=Nc4ccc(S(=O)(=O)O)cc4)cc3)c(S(=O)(=O)O)cc2c1)c1ccccc1
property.label: AC50
value.reported: inactive

molecule: COc1ccc(N)c([N+](=O)[O-])c1
property.label: AC50
value.reported: inactive

molecule: CCOC(=O)C1OC1c1ccccc1 (stereo not drawn)
property.label: AC50
value.reported: inactive

molecule: CC(C)=CCCC(C)CCOC=O (stereo not drawn)
property.label: AC50
value.reported: inactive

molecule: Oc1ccc2cc(SSc3ccc4cc(O)ccc4c3)ccc2c1
property.label: AC50
value.reported: inactive

molecule: CC(C)(CO)[C@@H](O)C(=O)NCCC(=O)O
property.label: AC50
value.reported: inactive

molecule: CCN(CCN)c1cccc(C)c1
property.label: AC50
value.reported: inactive

molecule: COc1ccc(CCN2CCC(Nc3nc4ccccc4n3Cc3ccc(F)cc3)CC2)cc1
property.label: AC50
value.reported: inactive

molecule: Cc1cc(CCC(=O)OCCOCCOCCOC(=O)CCc2cc(C)c(O)c(C(C)(C)C)c2)cc(C(C)(C)C)c1O
property.label: AC50
value.reported: 23.3 µM (active)

molecule: CC/C=C\CC/C=C/CO
property.label: AC50
value.reported: inactive

molecule: CCCC(=O)OC(C)(C)Cc1ccccc1
property.label: AC50
value.reported: inactive

====

# Read-out: CD69, CD69 (gene 969)
# protocol.details: BSK_SAg_CD69: BioMAP Diversity Plus: SAg Assay for CD69 Biomarker Activity (AID 2283089)
# reported.conditions: primary human HUVEC with PBMC; actives raise or lower the signal
Active and inactive are the calls of the source. Rule for the calls: active = hit-call score of the fitted dose curve at least 0.9, where 1 is the maximum; inactive = score below 0.9.
Outcomes: active, inactive

structure.notation: CC=Cc1ccc(OCC)c(O)c1
discrete.label: inactive

structure.notation: CC1(C)CCC[C@]2(C)[C@H]3CCO[C@]3(C)CC[C@@H]12
discrete.label: inactive

structure.notation: CCOC(=O)C(C#N)=C(c1ccccc1)c1ccccc1
discrete.label: inactive

structure.notation: COc1ccc(OC)c(N=Nc2c(O)ccc3ccccc23)c1
discrete.label: inactive

structure.notation: C[C@@H]1CCN(C(=O)[C@H](CCCN=C(N)N)NS(=O)(=O)c2cccc3c2NC[C@H](C)C3)[C@@H](C(=O)O)C1
discrete.label: inactive

structure.notation: CS(=O)(=O)OCCCCOS(C)(=O)=O
discrete.label: inactive

structure.notation: c1ccc(Oc2ccccc2)cc1
discrete.label: inactive

structure.notation: Clc1cc(Cl)c(-c2c(Cl)c(Cl)cc(Cl)c2Cl)cc1Cl
discrete.label: active

structure.notation: O=C1OC[C@H](Cc2cccc(O)c2)[C@H]1Cc1cccc(O)c1
discrete.label: inactive

structure.notation: CSCCC=O
discrete.label: inactive

structure.notation: CCCCCC(C=O)=Cc1ccccc1
discrete.label: inactive

structure.notation: COc1cc(Cl)c(OC)cc1N
discrete.label: inactive

structure.notation: CC(=O)Nc1ccc(C(=O)CCl)cc1
discrete.label: active

structure.notation: O=C1OC2(c3ccccc31)c1ccc(O)c(Br)c1Oc1c2ccc(O)c1Br
discrete.label: active

====

# protocol.details: ATG_M_32_CIS: Attagene CIS-FACTORIAL HepG2 Assay for M32 Transcription Factor (Internal Marker) (AID 2282949);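 note: background control marker of the multiplexed CIS panel rather than a real target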
# reported.conditions: HepG2 Attagene cis-factorial M32 reporter, mRNA; actives raise or lower the signal
Calls of active or inactive are those of the source. The calls were made as follows: active = hit-call score of the fitted dose curve at least 0.9, where 1 is the maximum; inactive = score below 0.9.
Outcomes: Y for active, N for inactive

compound: Nc1ccccc1[N+](=O)[O-]
discrete.label: N

compound: ON=C1CCCCC1
discrete.label: N

compound: CCOC(=O)COC(=O)c1cc(Oc2ccc(C(F)(F)F)cc2Cl)ccc1[N+](=O)[O-]
discrete.label: N

compound: CC(C)CCCCCCCCCCCCCCC(=O)O
discrete.label: N

compound: COC(=O)c1ccc(C)cc1C1=NC(C)(C(C)C)C(=O)N1 (stereo unspecified) (tested in a mixture with another compound)
discrete.label: N

compound: CCCCCC(C)=O
discrete.label: N

compound: CCc1ccc(O)c(OC)c1
discrete.label: N

compound: NC1CCCCC1N (stereo unspecified)
discrete.label: N

compound: OCCCCC(O)CO (stereo unspecified)
discrete.label: N

compound: Cc1[nH]c(=O)c(C#N)cc1-c1ccncc1
discrete.label: N

compound: CCCCSCCCC
discrete.label: N

compound: CSc1c(Cl)c(Cl)c(Cl)c(Cl)c1Cl
discrete.label: N

compound: c1ccc(Oc2ccccc2)cc1
discrete.label: N

compound: CCOC(=O)CCc1ccccc1
discrete.label: N

compound: C[Si](C)(C)O[Si](C)(C)C
discrete.label: N

compound: CC(C)(C)c1ccc(C(=O)O)cc1
discrete.label: N

compound: O=C(CC(=O)c1ccccc1)c1ccccc1
discrete.label: N

compound: COc1ccccc1N=Nc1c(S(=O)(=O)O)cc2cc(S(=O)(=O)O)cc(NC(C)=O)c2c1O
discrete.label: N

compound: Nc1c(Cl)cc(Cl)cc1[N+](=O)[O-]
discrete.label: N

compound: CCc1ncc(C)[nH]1
discrete.label: N

compound: CCc1cc(C(C)(C)C)c(O)c(C(C)(C)C)c1
discrete.label: N

compound: COc1ccc(N)c([N+](=O)[O-])c1
discrete.label: N

compound: Nc1ccc2c(O)cc(S(=O)(=O)O)cc2c1
discrete.label: N

compound: COc1ccc(CCC(C)=O)cc1
discrete.label: N

compound: CCCCCCCCc1ccc(S(=O)(=O)O)cc1
discrete.label: Y

compound: Nc1ccc2cc(S(=O)(=O)O)cc(O)c2c1N=Nc1ccccc1C(F)(F)F
discrete.label: N

compound: O=P(O)(O)O
discrete.label: N

compound: CCCCCCCCCC(C)C=O (stereo unspecified)
discrete.label: N

compound: CCCCC(CC)C(=O)OC(C)C (stereo unspecified)
discrete.label: N

compound: Cc1ncc[nH]1
discrete.label: N

compound: CCOC(=O)c1ccc(N)cc1
discrete.label: N

compound: OC[C@H]1O[C@@H](Oc2ccc(O)cc2)[C@H](O)[C@@H](O)[C@@H]1O
discrete.label: N

compound: IC(I)I
discrete.label: N

compound: Nc1ccc(Cl)c([N+](=O)[O-])c1
discrete.label: N

compound: C1=CC2C3C=CC(C3)C2C1 (stereo unspecified)
discrete.label: N

compound: O=CCc1ccccc1
discrete.label: N

compound: CC1=CC[C@@]23C[C@@H]1C(C)(C)[C@@H]2CC[C@H]3C
discrete.label: N

compound: C=CC(C)(O)CCC=C(C)C (stereo unspecified)
discrete.label: N

compound: CCCCC(CC)COC(C)=O (stereo unspecified)
discrete.label: N

compound: C[N+](C)(C)CCCCCC[N+](C)(C)C
discrete.label: N

compound: CC(C)(C)C1=CC(=O)C(C(C)(C)C)=CC1=O
discrete.label: N

compound: O=C1OC(=O)c2c(Br)c(Br)c(Br)c(Br)c21
discrete.label: N

compound: COc1ccccc1[N+](=O)[O-]
discrete.label: N

compound: COc1ccc(COC(C)=O)cc1
discrete.label: N

compound: Cc1cccc(Nc2ccccc2)c1
discrete.label: N

compound: CCCCCCCCCCCC(=O)OCC(O)CO (stereo unspecified)
discrete.label: N

compound: CCOC(=O)C1OC1c1ccccc1 (stereo unspecified)
discrete.label: N

compound: COc1cc(CCC(C)=O)ccc1O
discrete.label: N

compound: CCCCCCCCSCCO
discrete.label: N

compound: C=C(C)[C@@H]1CC=C(C)C(=O)C1
discrete.label: N

compound: O=C1OC2(c3ccccc31)c1ccc(O)c(Br)c1Oc1c2ccc(O)c1Br
discrete.label: N

compound: CCCCCCCC(=O)OCC(O)CO (stereo unspecified)
discrete.label: N

compound: CC(=O)O[C@@H]1CC2CCC1(C)C2(C)C (stereo partly specified)
discrete.label: N

compound: OCCc1ccccc1
discrete.label: N

compound: COC(C)(C)CCCC(C)CC=O (stereo unspecified)
discrete.label: N

compound: CC(=O)CC(=O)Nc1ccc(C)cc1C
discrete.label: N

compound: C=C(C)CNCC
discrete.label: N

compound: O=C1c2ccccc2C(=O)c2c(O)ccc(O)c21
discrete.label: N

compound: O=C1OC[C@H](Cc2cccc(O)c2)[C@H]1Cc1cccc(O)c1
discrete.label: N

compound: CN1CCOCC1
discrete.label: Y

compound: CCCC(C)=O
discrete.label: N
